Data origin, for the record: ChEMBL document CHEMBL1145385

Target: Polyamine deacetylase HDAC10 (Homo sapiens)
Sequence (Q969S8 whole entry): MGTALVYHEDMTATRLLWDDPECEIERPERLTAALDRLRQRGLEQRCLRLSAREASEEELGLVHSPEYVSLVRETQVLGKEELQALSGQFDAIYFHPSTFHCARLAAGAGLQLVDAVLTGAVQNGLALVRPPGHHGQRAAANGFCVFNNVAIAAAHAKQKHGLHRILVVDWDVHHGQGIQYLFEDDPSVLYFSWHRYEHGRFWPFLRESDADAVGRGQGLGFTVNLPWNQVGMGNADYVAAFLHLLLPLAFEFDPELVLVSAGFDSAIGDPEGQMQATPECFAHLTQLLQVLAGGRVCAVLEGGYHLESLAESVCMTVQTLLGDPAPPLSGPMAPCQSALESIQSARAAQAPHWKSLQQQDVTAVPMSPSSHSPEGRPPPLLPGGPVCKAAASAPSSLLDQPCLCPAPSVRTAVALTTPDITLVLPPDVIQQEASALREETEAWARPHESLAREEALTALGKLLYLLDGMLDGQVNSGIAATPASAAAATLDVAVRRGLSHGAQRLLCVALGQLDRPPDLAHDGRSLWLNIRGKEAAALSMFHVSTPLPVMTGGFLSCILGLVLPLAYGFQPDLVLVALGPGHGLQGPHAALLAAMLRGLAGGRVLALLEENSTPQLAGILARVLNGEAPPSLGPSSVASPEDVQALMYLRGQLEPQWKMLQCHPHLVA
I'd be grateful if you could share measured pIC50 for these entries.
Answers are plain numbers, as −log10 of the molar value.

Respectfully, I request pIC50 for each entry included below.
1. N[C@@H](Cc1ccc(O)cc1)C(=O)Nc1ccccc1-c1ccc(NC(=O)CCCCCCC(=O)NO)cc1
2. O=C(CS)NCCCCCC(=O)Nc1cccc2cccnc12
3. N[C@@H](Cc1c[nH]c2ccccc12)C(=O)Nc1ccccc1-c1ccc(NC(=O)CCCCCCC(=O)NO)cc1
4. O=C(CCCCCCC(=O)Nc1nc(-c2cccc([N+](=O)[O-])c2)cs1)NO
5. CN(C)c1ccc(C(=O)NCCCCCNC(=O)CS)cc1
6. CN(C)c1ccc(C(=O)NCCCCCCNC(=O)CS)cc1
7. CN(C)c1ccc(CNC(=O)NCCC(=O)NO)cc1
8. CN(C)c1ccc(C(=O)NCCCCNC(=O)CS)cc1

7.38
4.97
7.55
7.95
5.81
5.46
6.75
4.53

====

The compounds below have reported pIC50 for Histone deacetylase 1 (Homo sapiens, UniProt Q13547).
Answers are plain numbers, as −log10 of the molar value.

Please review the following examples before continuing.
CN(C)c1ccc(C(=O)NCCCCCNC(=O)CS)cc1 : 5.97
N[C@@H](Cc1ccc(O)cc1)C(=O)Nc1ccccc1-c1ccc(NC(=O)CCCCCCC(=O)NO)cc1 : 7.43
N[C@@H](Cc1c[nH]c2ccccc12)C(=O)Nc1ccccc1-c1ccc(NC(=O)CCCCCCC(=O)NO)cc1 : 7.57
O=C(CS)NCCCCCC(=O)Nc1cccc2cccnc12 : 5.49

Lab note: each compound below needs its pIC50 filled in.
1. CN(C)c1ccc(CNC(=O)NCCC(=O)NO)cc1
2. O=C(CCCCCNC(=O)NC12CC3CC(CC(C3)C1)C2)NO

1. 6.89
2. 6.82

====

The following molecules have recorded pIC50 on Histone deacetylase 8 (Homo sapiens, UniProt Q9BY41).
Sequence (Q9BY41 whole entry): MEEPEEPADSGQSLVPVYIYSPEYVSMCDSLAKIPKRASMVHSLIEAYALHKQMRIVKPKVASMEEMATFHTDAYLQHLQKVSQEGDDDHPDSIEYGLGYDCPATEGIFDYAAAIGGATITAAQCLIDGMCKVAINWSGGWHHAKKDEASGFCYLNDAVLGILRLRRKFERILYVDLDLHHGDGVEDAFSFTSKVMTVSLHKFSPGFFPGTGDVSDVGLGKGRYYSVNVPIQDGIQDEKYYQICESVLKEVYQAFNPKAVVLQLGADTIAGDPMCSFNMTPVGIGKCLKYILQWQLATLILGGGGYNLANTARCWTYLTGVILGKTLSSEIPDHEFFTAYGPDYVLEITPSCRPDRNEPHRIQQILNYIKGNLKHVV
Give bare numbers, as −log10 of the molar value.

Examples with answers:
CN(C)c1ccc(C(=O)NCCCCCNC(=O)CS)cc1 : 4.99
O=C(CCCCCCC(=O)Nc1nc(-c2cccc([N+](=O)[O-])c2)cs1)NO : 5.39
O=C(CCCCCNC(=O)NC12CC3CC(CC(C3)C1)C2)NO : 5.47
CN(C)c1ccc(NC(=O)NCCCCCCC(=O)NO)cc1 : 5.76
O=C(CS)NCCCCCC(=O)Nc1cccc2cccnc12 : 5.21

# batch: return pIC50 for each of the 2 molecules below
1. N[C@@H](Cc1c[nH]c2ccccc12)C(=O)Nc1ccccc1-c1ccc(NC(=O)CCCCCCC(=O)NO)cc1
2. O=C(CS)NCCCCCCNC(=O)Nc1ccccc1

1. 5.76
2. 4.86
